Biological target: Gamma-aminobutyric acid receptor subunit alpha-3 (Homo sapiens)
Sequence (P34903 whole entry): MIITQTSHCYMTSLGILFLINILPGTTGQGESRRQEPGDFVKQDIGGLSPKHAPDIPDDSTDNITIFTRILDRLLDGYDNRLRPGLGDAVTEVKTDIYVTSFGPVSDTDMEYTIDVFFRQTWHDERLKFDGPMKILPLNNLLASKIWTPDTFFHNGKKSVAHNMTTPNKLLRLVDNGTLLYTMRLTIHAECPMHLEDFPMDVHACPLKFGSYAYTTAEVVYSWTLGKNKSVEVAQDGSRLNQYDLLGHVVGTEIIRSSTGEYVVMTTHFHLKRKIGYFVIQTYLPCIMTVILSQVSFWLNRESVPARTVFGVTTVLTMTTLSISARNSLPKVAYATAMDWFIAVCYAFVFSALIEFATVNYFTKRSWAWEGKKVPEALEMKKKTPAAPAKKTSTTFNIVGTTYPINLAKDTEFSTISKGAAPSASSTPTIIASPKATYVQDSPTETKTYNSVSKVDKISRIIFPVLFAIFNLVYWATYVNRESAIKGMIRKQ
pKi: −log10 of the molar value.
observed_property: pKi

mol_smiles	system_tested	observed_property	modifier	value_observed
O=c1[nH][nH]c2c1CCNC2	Gamma-aminobutyric acid receptor subunit alpha-3 (Homo sapiens)	pKi	<	5.00
O=c1o[nH]c2c1CCNC2	Gamma-aminobutyric acid receptor subunit alpha-3 (Homo sapiens)	pKi	=	5.10
